assay_method_text: Acute toxicity (LD50) in rats
condition_info: rat, in vivo, other: injected; rats injected with increasing doses
measurement_label: LD50 (mg/kg)
Hi! Could you send only the number? It should be in mg/kg, unit omitted.

Which LD50 value is on record for N#Cc1cnn(-c2nc3c(ccc4ccccc43)s2)c1/N=C\NN [Compound 9] ?
125

Need LD50, item N#Cc1cnn(-c2nc3c(ccc4ccccc43)s2)c1N [Compound 2]
163

// returns reported LD50 for input Nc1nc(=S)[nH]c2c1cnn2-c1nc2c(ccc3ccccc32)s1 [Compound 5]
267

What measured LD50 goes with N=c1sc(=S)[nH]c2c1cnn2-c1nc2c(ccc3ccccc32)s1 [Compound 6] ?
258

Can you share its LD50? I mean this compound: CCOC1SCC(=O)N1c1c(C#N)cnn1-c1nc2c(ccc3ccccc32)s1 (stereo not drawn) [Compound 12]
234

For the compound NNc1nc2c(ccc3ccccc32)s1 [Compound 1, 1-(naphtho[1,2-d]thiazol-2-yl)hydrazine] , what LD50 is on record?
1160

Param item = CCO/C=N\c1c(C#N)cnn1-c1nc2c(ccc3ccccc32)s1 [Compound 8] ; retrieve measured LD50.
236

If you can, please state the reported LD50 value of Cc1nc2c3cnn(-c4nc5c(ccc6ccccc65)s4)c3ncn2n1 [Compound 10] .
316

Item under review: CCOC1SCC2NC(=O)c3cnn(-c4nc5c(ccc6ccccc65)s4)c3N21 (stereo not drawn) [Compound 13] . Reported LD50?
443
